Each recorded value in this set is attributed to patent US12492211B2.

Test Method Notes: Pharmacokinetic test in Beagle dogs, oral capsules
Format: in vivo
Condition Notes: dog, plasma; male Beagle dogs, 5 mg/kg oral, capsules
Endpoint Name: Cmax (ng/mL)
Please state the figure in ng/mL; there is no need to write the unit.

**Q:** Recorded Cmax for O=C(O)c1ccc2c(c1)Oc1ccc(OCc3c(-c4c(Cl)cccc4Cl)noc3C3CC3)nc1C1(CC1)C2 [Crystal form A] , please?
**A:** 86

* * *

Test Method Notes: Pharmacokinetic test in Beagle dogs, oral capsules
Type: in vivo
Condition Notes: dog, plasma; male Beagle dogs, 5 mg/kg oral, capsules
Endpoint Name: AUC(0-t)
# answer = value followed by unit

**Q:** Find the recorded AUC(0-t) belonging to O=C(O)c1ccc2c(c1)Oc1ccc(OCc3c(-c4c(Cl)cccc4Cl)noc3C3CC3)nc1C1(CC1)C2 [Crystal form A] and report it.
**A:** 237 ng·h/mL
